System: Candida glabrata
Assay: Minimal Inhibitory Concentration (MIC) assay, broth microdilution per CLSI;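 further: two read times 24 hr and 48 hr of incubation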
Assay type: cell-based
Details: Nakaseomyces glabratus; 48 hr reading (second value of cell 24 hr/48 hr); read-out: Minimum Inhibitory Concentrations against Yeast Isolates, Candida glabrata
Measured MIC by item
Express your answer in µg/mL, writing the number without its unit.

Observe how each entry below is paired with its result.
{"molecule": "O=C(Cc1ccc(CCCC(O)c2ccccc2)cc1)NO (stereo not shown) [Example 25]", "units-of-measure": "µg/mL", "MIC": 64}
{"molecule": "O=C(Cc1ccc(CCCCC2CCCCC2)cc1)NO [Example 8]", "units-of-measure": "µg/mL", "MIC": 0.12}
{"molecule": "CC(C(=O)NO)c1ccc(CCC(O)Cc2ccccc2)cc1 (stereo not shown) [Example 58]", "units-of-measure": "µg/mL", "MIC": 64}
{"molecule": "COCCOCCOCC(=O)Nc1cccc(CCCCc2ccc(CC(=O)NO)cc2)c1 [Example 40]", "units-of-measure": "µg/mL", "MIC": 32}
{"molecule": "O=C(Cc1ccc(CCCCc2ccc(-c3ccccc3)cc2)cc1)NO [Example 5]", "units-of-measure": "µg/mL", "MIC": 8}

Look up MIC with Candida glabrata for this molecule: O=C(Cc1ccc(CCCCc2cccc(NS(=O)(=O)CCN3CCOCC3)c2)cc1)NO [Example 53] 32

Look up MIC with Candida glabrata for this molecule: O=C(Cc1ccc(CCCCc2ccc(F)cc2F)cc1)NO [Example 3] 0.5

Look up MIC with Candida glabrata for this molecule: Nc1ccccc1CCCCc1ccc(CC(=O)NO)cc1 [Example 33] 8

###

Test system: C. glabrata
Experiment: Checkerboard FIC assay in combination with fluconazole (MIC alone and in combination, FICI)
Format: cell-based, Candida glabrata
Conditions: C. glabrata; FICI calculated using a fluconazole MIC of 16 μg/mL
Measured FICI of combination resulting in fluconazole MIC of: 4 ug/mL by item

Observe how each entry below is paired with its result.
{"compound": "Nc1ccc(CCCCc2ccc(CC(=O)NO)cc2)cc1 [Example 31]", "reading": 0.500}
{"compound": "O=C(Cc1ccc(CCCC(=O)c2ccccc2)cc1)NO [Example 28]", "reading": 0.250}

Reported FICI of combination resulting in fluconazole MIC of: 4 ug/mL for O=C(Cc1ccc(CCC(O)Cc2ccccc2)cc1)NO (centres unmarked) [Example 57] : what is it? 0.625

Reported FICI of combination resulting in fluconazole MIC of: 4 ug/mL for COCCOCCOCCNS(=O)(=O)c1ccc(CCCCc2ccc(CC(=O)NO)cc2)cc1 [Example 12] : what is it? 0.250

Reported FICI of combination resulting in fluconazole MIC of: 4 ug/mL for O=C(Cc1ccc(CCCCc2ccc(NS(=O)(=O)CCN3CCOCC3)cc2)cc1)NO [Example 51] : what is it? 0.250

###

Measured FICI of combination resulting in fluconazole MIC of: 2 ug/mL (value in parenthesis) by item
Tested on: C. glabrata
Assay: Checkerboard FIC assay in combination with fluconazole (MIC alone and in combination, FICI)
Assay type: cell-based, Candida glabrata
Conditions: C. glabrata; FICI using a fluconazole MIC of 128 μg/mL
# answer = number (no unit)

{"compound": "O=C(Cc1ccc(C(F)CCCc2ccccc2)cc1)NO (stereo not drawn)", "reading": 0.266}
{"compound": "O=C(Cc1csc(CCCCc2ccccc2)n1)NO", "reading": 0.516}

Reported FICI of combination resulting in fluconazole MIC of: 2 ug/mL (value in parenthesis) for `O=C(Cc1ccc(CCC/C(=N\O)c2ccccc2)cc1)NO` : what is it? 0.266

Reported FICI of combination resulting in fluconazole MIC of: 2 ug/mL (value in parenthesis) for `O=C(Cc1cnc(CCCCc2ccccc2)s1)NO` : what is it? 0.266

Reported FICI of combination resulting in fluconazole MIC of: 2 ug/mL (value in parenthesis) for O=C(Cc1ccc(CCCC(O)c2ccccc2)cc1)NO (stereo not drawn) : what is it? 0.516

Reported FICI of combination resulting in fluconazole MIC of: 2 ug/mL (value in parenthesis) for `O=C(Cc1ccc(CCCCc2ccc(O)cc2)cc1)NO` : what is it? 0.266

Reported FICI of combination resulting in fluconazole MIC of: 2 ug/mL (value in parenthesis) for `O=C(Cc1ccc(CCCC(F)(F)c2ccccc2)cc1)NO` : what is it? 0.516

Reported FICI of combination resulting in fluconazole MIC of: 2 ug/mL (value in parenthesis) for `CN1CCN(CCS(=O)(=O)Nc2cccc(CCCCc3ccc(CC(=O)NO)cc3)c2)CC1` : what is it? 0.266

Reported FICI of combination resulting in fluconazole MIC of: 2 ug/mL (value in parenthesis) for `O=C(Cc1ccc(CCCCC2CCCCC2)cc1)NO` : what is it? 0.496

Reported FICI of combination resulting in fluconazole MIC of: 2 ug/mL (value in parenthesis) for `COc1ccc(CCCCc2ccc(CC(=O)NO)cc2)cc1OC` : what is it? 0.266

Reported FICI of combination resulting in fluconazole MIC of: 2 ug/mL (value in parenthesis) for `O=C(Cc1ccc(CCCCc2ccc(F)cc2F)cc1)NO` : what is it? 0.516

Reported FICI of combination resulting in fluconazole MIC of: 2 ug/mL (value in parenthesis) for `Nc1cccc(CCCCc2ccc(CC(=O)NO)cc2)c1` : what is it? 0.516

Reported FICI of combination resulting in fluconazole MIC of: 2 ug/mL (value in parenthesis) for `O=C(Cc1ccc(CCCCc2cccc(NS(=O)(=O)CCN3CCOCC3)c2)cc1)NO` : what is it? 0.266

Reported FICI of combination resulting in fluconazole MIC of: 2 ug/mL (value in parenthesis) for `O=C(Cc1ccc(CCCCc2cccc(NC(=O)CO)c2)cc1)NO` : what is it? 0.516

Reported FICI of combination resulting in fluconazole MIC of: 2 ug/mL (value in parenthesis) for `Cc1ccc(CCCCc2ccc(CC(=O)NO)cc2)cc1` : what is it? 1.016

Reported FICI of combination resulting in fluconazole MIC of: 2 ug/mL (value in parenthesis) for `CN1CCN(CCNC(=O)Nc2cccc(CCCCc3ccc(CC(=O)NO)cc3)c2)CC1` : what is it? 0.141

Reported FICI of combination resulting in fluconazole MIC of: 2 ug/mL (value in parenthesis) for `Cn1cnc(CNC(=O)c2ccc(CCCCc3ccc(CC(=O)NO)cc3)cc2)c1` : what is it? 0.266

Reported FICI of combination resulting in fluconazole MIC of: 2 ug/mL (value in parenthesis) for `CC(C)(C(=O)NO)c1ccc(CCCCc2ccccc2)cc1` : what is it? 0.516

###

Tested on: C. glabrata
Assay: Checkerboard FIC assay in combination with fluconazole (MIC alone and in combination, FICI)
Assay type: cell-based, Candida glabrata
Conditions: in combination with fluconazole, C. glabrata; fluconazole MIC lowered to 8 ug/mL
Measured Concentration of Methylgene compound to synergize fluconazole MIC to 8 ug/mL by item
Express your answer in µg/mL, writing the number without its unit.

Observe how each entry below is paired with its result.
{"compound": "O=C(Cc1ccc(CCCCc2ccc(-c3ccccc3)cc2)cc1)NO", "reading": 0.12}
{"compound": "O=C(Cc1cnc(CCCCc2ccccc2)s1)NO", "reading": 2}
{"compound": "O=C(Cc1ccc(CCCC(F)c2ccccc2)cc1)NO (stereo not drawn)", "reading": 0.5}
{"compound": "O=C(Cc1ccc(CCCCc2ccc(C(=O)N3CCOCCOCCOCCOCCOCC3)cc2)cc1)NO", "reading": 2}
{"compound": "COCCOCCOCC(=O)Nc1cccc(CCCCc2ccc(CC(=O)NO)cc2)c1", "reading": 2}

Reported Concentration of Methylgene compound to synergize fluconazole MIC to 8 ug/mL for O=C(Cc1ccc(CCCC(O)c2ccccc2)cc1)NO (stereo not drawn) : what is it? 4

Reported Concentration of Methylgene compound to synergize fluconazole MIC to 8 ug/mL for `O=C(Cc1ccc(CCCCc2ccc(C(=O)NCCCn3ccnc3)cc2)cc1)NO` : what is it? 1

Reported Concentration of Methylgene compound to synergize fluconazole MIC to 8 ug/mL for O=C(Cc1ccc(C(O)CCCc2ccccc2)cc1)NO (stereo not drawn) : what is it? 4

Reported Concentration of Methylgene compound to synergize fluconazole MIC to 8 ug/mL for `CN(C)CCSCC(=O)Nc1cccc(CCCCc2ccc(CC(=O)NO)cc2)c1` : what is it? 2

###

Measured MIC by item
Test system: Candida albicans
Experiment: Minimal Inhibitory Concentration (MIC) assay, broth microdilution per CLSI;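 further: two read times 24 hr and 48 hr of incubation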
Format: cell-based
Settings: Candida albicans; 48 hr reading (second value of cell 24 hr/48 hr); read-out: Minimum Inhibitory Concentrations against Yeast Isolates, Candida albicans

{"compound": "Nc1ccccc1CCCCc1ccc(CC(=O)NO)cc1", "MIC": "16 µg/mL"}
{"compound": "CN(C)CCSCC(=O)Nc1cccc(CCCCc2ccc(CC(=O)NO)cc2)c1", "MIC": "> 64 µg/mL"}
{"compound": "O=C(Cc1cnc(CCCCc2ccccc2)s1)NO", "MIC": "64 µg/mL"}
{"compound": "CN1CCC(C(=O)Nc2cccc(CCCCc3ccc(CC(=O)NO)cc3)c2)CC1", "MIC": "> 64 µg/mL"}
{"compound": "Cn1cnc(CNC(=O)c2ccc(CCCCc3ccc(CC(=O)NO)cc3)cc2)c1", "MIC": "> 8 µg/mL"}
{"compound": "O=C(Cc1csc(CCCCc2ccccc2)n1)NO", "MIC": "32 µg/mL"}
{"compound": "CN1CCN(CCS(=O)(=O)Nc2cccc(CCCCc3ccc(CC(=O)NO)cc3)c2)CC1", "MIC": "> 64 µg/mL"}
{"compound": "O=C(Cc1ccc(CCC(F)Cc2ccccc2)cc1)NO (stereo not shown)", "MIC": "4 µg/mL"}
{"compound": "COc1ccc(CCCCc2ccc(CC(=O)NO)cc2)cc1OC", "MIC": "16 µg/mL"}
{"compound": "O=C(Cc1ccc(CCCCc2ccccc2NC(=O)CO)cc1)NO", "MIC": "> 64 µg/mL"}

Reported MIC for `COCCOCCOCCOCCOCCOc1ccc(CCCCc2ccc(CC(=O)NO)cc2)cc1` : what is it? > 64 µg/mL

Reported MIC for `O=C(Cc1ccc(CCCCc2cccc(NS(=O)(=O)CCN3CCOCC3)c2)cc1)NO` : what is it? > 64 µg/mL

Reported MIC for `O=C(Cc1ccc(CCCCc2ccc(NC(=O)NCCN3CCOCC3)cc2)cc1)NO` : what is it? > 32 µg/mL
